These entries and their values trace back to patent US8778926B2.

# log10(EC50) annotations
# measured target: human GPR119 (Homo sapiens, UniProt Q8TDV5)
# Construct: expression vector for human GPR119 cDNA (Acc. No. NP_848566)
# Sequence (Q8TDV5 whole entry): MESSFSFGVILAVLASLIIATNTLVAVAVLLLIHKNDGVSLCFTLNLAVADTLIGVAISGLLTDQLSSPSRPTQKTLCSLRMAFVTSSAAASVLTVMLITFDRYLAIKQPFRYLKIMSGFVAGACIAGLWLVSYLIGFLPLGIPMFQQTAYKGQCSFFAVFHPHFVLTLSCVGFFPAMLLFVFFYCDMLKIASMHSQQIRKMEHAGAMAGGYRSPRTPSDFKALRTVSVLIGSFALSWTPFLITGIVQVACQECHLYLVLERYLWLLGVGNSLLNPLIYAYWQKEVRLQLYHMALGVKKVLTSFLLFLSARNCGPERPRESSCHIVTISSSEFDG
# procedure details: AlphaScreen cAMP assay, activation of GPR119 in Min-6/hGPR119 cells
# run conditions: MIN6 cells stably transfected with human GPR119; intracellular cAMP; 45 minutes incubation at room temperature
readout type: log10(EC50) (log10 of the value in nM)

1) CC(C)(C)c1noc(N2CCC([C@]3(C)Cc4cc(-c5ccc(S(C)(=O)=O)cc5)ncc4O3)CC2)n1 (single isomer, unassigned) :: 1.71
2) CCc1cnc(N2CCC(C3Cc4cc(-c5ccc(S(C)(=O)=O)cc5)ncc4O3)CC2)cn1 (stereo not shown) :: 1.77
3) CC(C)c1nc(N2CCC([C@@H]3Cc4cc(C5=CCN(S(C)(=O)=O)CC5)ncc4O3)CC2)no1 (single isomer, unassigned) :: 1.26
4) C[C@@]1(C2CCN(c3ncc(C4CC4)cn3)CC2)Cc2cc(-c3ccc(S(C)(=O)=O)cc3)ncc2O1 (single isomer, unassigned) :: 1.20
5) CC(C)c1noc(N2CCC(C3Cc4cc(C5=CCN(S(C)(=O)=O)CC5)ncc4O3)CC2)n1 (stereo not shown) :: 1.20
6) CCc1cnc(N2CCC(C3Cc4cc(-c5ccc(C(=O)NCC(C)O)cc5)ccc4O3)CC2)nc1 (stereo not shown) :: 1.72
7) CC1(C2CCN(c3nnc(C(F)(F)F)s3)CC2)Cc2cc(C3=CCN(S(C)(=O)=O)CC3)ncc2O1 (single isomer, unassigned) :: 1.08
8) CS(=O)(=O)N1CC=C(c2cc3c(cn2)O[C@@H](C2CCN(c4ccc(C(F)(F)F)cn4)CC2)C3)CC1 (single isomer, unassigned) :: 0.48
9) CS(=O)(=O)c1ccc(-c2cc3c(cn2)O[C@@H](C2CCN(c4ncc(C5CC5)cn4)CC2)C3)cc1 (single isomer, unassigned) :: 1.00
10) CCCc1noc(N2CCC(C3Cc4cc(C5=CCN(S(C)(=O)=O)CC5)ncc4O3)CC2)n1 (stereo not shown) :: 1.40
11) CC(C)c1nc(N2CCC([C@]3(C)Cc4cc(C5=CCN(S(C)(=O)=O)CC5)ncc4O3)CC2)no1 (single isomer, unassigned) :: 0.95
12) CCCc1nc(N2CCC([C@]3(C)Cc4cc(C5=CCN(S(C)(=O)=O)CC5)ncc4O3)CC2)no1 (single isomer, unassigned) :: 0.78
13) CC(C)(C)c1noc(N2CCC(C3Cc4cc(C5=CCN(S(C)(=O)=O)CC5)ncc4O3)CC2)n1 (stereo not shown) :: 1.26
